# Tested on: Klebsiella pneumoniae
# Test: Minimum inhibitory concentration (MIC), tested against Klebsiella pneumoniae X68
# Type: functional
Entries and their log10 MIC
Please note: log10 values; quantity MIC; unit µg/mL.

| Compound | log10 MIC |
| --- | --- |
| CO/N=C(\C(=O)NC1CN2CC(C(=O)Nc3ccccc3)=C(C(=O)O)N2C1=O)c1csc(N)n1 (stereo not given) | 1.51 |

Request: Under Klebsiella pneumoniae, report log10 MIC for CO/N=C(\C(=O)NC1CN2CC(C(C)=O)=C(C(=O)O)N2C1=O)c1csc(N)n1 (stereo not given)
Response: 0.30

Request: Fill in: log10 MIC on Klebsiella pneumoniae, entry CO/N=C(\C(=O)NC1CN2CC(S(C)(=O)=O)=C(C(=O)O)N2C1=O)c1csc(N)n1 (stereo not given)
Response: -0.60

Request: Answer briefly: log10 MIC recorded on Klebsiella pneumoniae for CO/N=C(\C(=O)NC1CN2CC(C(=O)OC)=C(C(=O)O)N2C1=O)c1csc(N)n1 (stereo not given)
Response: 0.90

Request: For Klebsiella pneumoniae, give log10 MIC of the listed compound: CO/N=C(\C(=O)NC1CN2CC(C(=O)O)=C(C(=O)O)N2C1=O)c1csc(N)n1 (stereo not given)
Response: 1.81

Request: Return reported log10 MIC for target or system Klebsiella pneumoniae, item CO/N=C(\C(=O)NC1CN2CC(C#N)=C(C(=O)O)N2C1=O)c1csc(N)n1 (stereo not given) .
Response: -0.30

* * *

Quick list: MIC per entry.
# Test system: Providencia rettgeri
# Test: Minimum inhibitory concentration (MIC), tested against Providencia rettgeri C24
# Type: functional
Please respond with the number in µg/mL and leave the unit unwritten.

| Molecule | Assay target | Units symbol | Result |
| --- | --- | --- | --- |
| CO/N=C(\C(=O)NC1CN2CC(C(=O)O)=C(C(=O)O)N2C1=O)c1csc(N)n1 (stereo not given) | Providencia rettgeri | µg/mL | 8 |
| CO/N=C(\C(=O)NC1CN2CC(C#N)=C(C(=O)O)N2C1=O)c1csc(N)n1 (stereo not given) | Providencia rettgeri | µg/mL | 0.25 |
| CO/N=C(\C(=O)NC1CN2CC(S(C)(=O)=O)=C(C(=O)O)N2C1=O)c1csc(N)n1 (stereo not given) | Providencia rettgeri | µg/mL | 0.06 |
| CO/N=C(\C(=O)NC1CN2CC(C(=O)Nc3ccccc3)=C(C(=O)O)N2C1=O)c1csc(N)n1 (stereo not given) | Providencia rettgeri | µg/mL | 8 |

Request: Indicate the recorded MIC value for this molecule: CO/N=C(\C(=O)NC1CN2CC(C(C)=O)=C(C(=O)O)N2C1=O)c1csc(N)n1 (stereo not given)
Response: 0.25

Request: Give the reported value of MIC for this record: CO/N=C(\C(=O)NC1CN2CC(C(=O)OC)=C(C(=O)O)N2C1=O)c1csc(N)n1 (stereo not given)
Response: 1

* * *

# Test: Rate constant for hydrolysis at pH 9
# Type: ADME
# Test parameters: buffer
Entries and their measured k follow.
Output spec: scalar in h⁻¹, unitless text.

| Compound | Measured property | Result |
| --- | --- | --- |
| CO/N=C(\C(=O)NC1CN2CC(C(=O)OC)=C(C(=O)O)N2C1=O)c1csc(N)n1 (stereo not given) | k | 4.74 |

Request: For the compound CO/N=C(\C(=O)NC1CN2CC(C#N)=C(C(=O)O)N2C1=O)c1csc(N)n1 (stereo not given) , report k.
Response: 17.3

Request: Using known records, supply k for CO/N=C(\C(=O)NC1CN2CC(C(=O)Nc3ccccc3)=C(C(=O)O)N2C1=O)c1csc(N)n1 (stereo not given)
Response: 2.33

Request: # return recorded k for entry CO/N=C(\C(=O)NC1CN2CC(S(C)(=O)=O)=C(C(=O)O)N2C1=O)c1csc(N)n1 (stereo not given)
Response: 14.8

Request: Read the entry CO/N=C(\C(=O)NC1CN2CC(C(C)=O)=C(C(=O)O)N2C1=O)c1csc(N)n1 (stereo not given) and write its reported k.
Response: 7.24
